Please provide measured viability, T/C for the entries that follow.
test system: NCI-H196 complex spheroids with HUVEC/MSC, growth % T/C; assay: Anticancer human tumor NCI-H196 cell line growth inhibition [Asc]; conditions: second compound 0.949 µM; first compound 0.316 µM; stronger effect = lower value;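 also: spheroids exposed to compound for 7 days before measurement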;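 as to viability, T/C: 100% = DMSO vehicle control wells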
Numeric only. Scale: %

// query viability, T/C value for entry O=C(c1cc(Cc2n[nH]c(=O)c3ccccc23)ccc1F)N1CCN(C(=O)C2CC2)CC1 + CCN1C(C(=O)NC23CCC(C(=O)O)(CC2)CC3)C(c2cccc(Cl)c2F)C2(C(=O)Nc3cc(Cl)ccc32)C12CCCCC2
121

Repeat with CNC(C)C(=O)NC1CN(S(=O)(=O)c2cccc(S(=O)(=O)N3CCC4CCC(C(=O)NC(c5ccccc5)c5ccccc5)N4C(=O)C(NC(=O)C(C)NC)C3)c2)CCC2CCC(C(=O)NC(c3ccccc3)c3ccccc3)N2C1=O (centres undefined) + CCN1C(C(=O)NC23CCC(C(=O)O)(CC2)CC3)C(c2cccc(Cl)c2F)C2(C(=O)Nc3cc(Cl)ccc32)C12CCCCC2
2.84

Repeat with C=CC(=O)N1CCN(c2nc(=O)n(-c3c(C)ccnc3C(C)C)c3nc(-c4c(O)cccc4F)c(F)cc23)C(C)C1 (centres undefined) + CCN1C(C(=O)NC23CCC(C(=O)O)(CC2)CC3)C(c2cccc(Cl)c2F)C2(C(=O)Nc3cc(Cl)ccc32)C12CCCCC2
115

Repeat with COc1c(OCCCN2CCOCC2)ccc2c3n(c(=NC(=O)c4cnc(N)nc4)nc12)CCN3 + CCN1C(C(=O)NC23CCC(C(=O)O)(CC2)CC3)C(c2cccc(Cl)c2F)C2(C(=O)Nc3cc(Cl)ccc32)C12CCCCC2
66.9

###

Please provide measured viability, T/C for the entries that follow.
test system: NCI-H196 complex spheroids with HUVEC/MSC, growth % T/C; experiment: Anticancer human tumor NCI-H196 cell line growth inhibition [Asc]; conditions: second compound 0.0316 µM; first compound 0.01 µM; stronger effect = lower value;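 also: spheroids exposed to compound for 7 days before measurement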;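 as to viability, T/C: 100% = DMSO vehicle control wells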
Numeric only. Scale: %

// query viability, T/C value for entry CCN1CCN(Cc2ccc(Nc3ncc(F)c(-c4cc(F)c5nc(C)n(C(C)C)c5c4)n3)nc2)CC1 + CNC(C)C(=O)NC1CN(S(=O)(=O)c2cccc(S(=O)(=O)N3CCC4CCC(C(=O)NC(c5ccccc5)c5ccccc5)N4C(=O)C(NC(=O)C(C)NC)C3)c2)CCC2CCC(C(=O)NC(c3ccccc3)c3ccccc3)N2C1=O
4.1

Repeat with O=C(c1ccc(F)c(F)c1Nc1ccc(I)cc1F)N1CC(O)([C@@H]2CCCCN2)C1 + CNC(C)C(=O)NC1CN(S(=O)(=O)c2cccc(S(=O)(=O)N3CCC4CCC(C(=O)NC(c5ccccc5)c5ccccc5)N4C(=O)C(NC(=O)C(C)NC)C3)c2)CCC2CCC(C(=O)NC(c3ccccc3)c3ccccc3)N2C1=O
6.82

Repeat with COc1c(OCCCN2CCOCC2)ccc2c3n(c(=NC(=O)c4cnc(N)nc4)nc12)CCN3 + CNC(C)C(=O)NC1CN(S(=O)(=O)c2cccc(S(=O)(=O)N3CCC4CCC(C(=O)NC(c5ccccc5)c5ccccc5)N4C(=O)C(NC(=O)C(C)NC)C3)c2)CCC2CCC(C(=O)NC(c3ccccc3)c3ccccc3)N2C1=O
5.47

###

system: NCI-H196 complex spheroids with HUVEC/MSC, growth % T/C; assay: Anticancer human tumor NCI-H196 cell line growth inhibition [Asc]; details: curve of first compound; second compound 3.16 µM;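 also: spheroids exposed to compound for 7 days before measurement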
quantity measured: pIC50
In textbook form, pIC50 equals minus log to base ten of the concentration in mol/L.

GET /values?readout=pIC50&system=NCI-H196 complex spheroids with HUVEC/MSC, growth % T/C&item= NC(=O)C(=Cn1cnc(-c2cc(C(F)(F)F)cc(C(F)(F)F)c2)n1)c1cncnc1 + Cc1c(S(C)(=O)=O)c(-c2cc(F)cc(N3CCN(c4ccc(NS(=O)(=O)c5ccc(NC(CCN6CCC(C(=O)OCCCP(=O)(O)O)CC6)CSc6ccccc6)c(S(=O)(=O)C(F)(F)F)c5)cc4)CC3)c2)c(-c2ccc(Cl)cc2)n1C(C)C
7.70

Repeat with COc1c(OCCCN2CCOCC2)ccc2c3n(c(=NC(=O)c4cnc(N)nc4)nc12)CCN3 + Cc1c(S(C)(=O)=O)c(-c2cc(F)cc(N3CCN(c4ccc(NS(=O)(=O)c5ccc(NC(CCN6CCC(C(=O)OCCCP(=O)(O)O)CC6)CSc6ccccc6)c(S(=O)(=O)C(F)(F)F)c5)cc4)CC3)c2)c(-c2ccc(Cl)cc2)n1C(C)C
6.65

Repeat with Cc1nc(N2CCC3(CC2)COC(C)C3N)c(CO)nc1Sc1ccnc(N)c1Cl (stereo unspecified) + Cc1c(S(C)(=O)=O)c(-c2cc(F)cc(N3CCN(c4ccc(NS(=O)(=O)c5ccc(NC(CCN6CCC(C(=O)OCCCP(=O)(O)O)CC6)CSc6ccccc6)c(S(=O)(=O)C(F)(F)F)c5)cc4)CC3)c2)c(-c2ccc(Cl)cc2)n1C(C)C
6.03

###

test system: NCI-H196 complex spheroids with HUVEC/MSC, growth % T/C; experiment: Anticancer human tumor NCI-H196 cell line growth inhibition [Asc]; details: second compound 0.3 µM; first compound 0.00316 µM; stronger effect = lower value;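 also: spheroids exposed to compound for 7 days before measurement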;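 as to viability, T/C: 100% = DMSO vehicle control wells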
Please provide measured viability, T/C for the entries that follow.
Numeric only. Scale: %

// query viability, T/C value for entry CCN1CCN(Cc2ccc(Nc3ncc(F)c(-c4cc(F)c5nc(C)n(C(C)C)c5c4)n3)nc2)CC1 + CCN1C(C(=O)NC23CCC(C(=O)O)(CC2)CC3)C(c2cccc(Cl)c2F)C2(C(=O)Nc3cc(Cl)ccc32)C12CCCCC2
107

Repeat with O=C(c1ccc(F)c(F)c1Nc1ccc(I)cc1F)N1CC(O)([C@@H]2CCCCN2)C1 + CCN1C(C(=O)NC23CCC(C(=O)O)(CC2)CC3)C(c2cccc(Cl)c2F)C2(C(=O)Nc3cc(Cl)ccc32)C12CCCCC2
104

Repeat with Cn1ncnc1[C@H]1c2n[nH]c(=O)c3cc(F)cc(c23)N[C@@H]1c1ccc(F)cc1 + CCN1C(C(=O)NC23CCC(C(=O)O)(CC2)CC3)C(c2cccc(Cl)c2F)C2(C(=O)Nc3cc(Cl)ccc32)C12CCCCC2
119

###

tested on: NCI-H196 complex spheroids with HUVEC/MSC, growth % T/C; test: Anticancer human tumor NCI-H196 cell line growth inhibition [Asc]; conditions: second compound 0.0316 µM; first compound 0.0316 µM; stronger effect = lower value;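 also: spheroids exposed to compound for 7 days before measurement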;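 as to viability, T/C: 100% = DMSO vehicle control wells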
Please provide measured viability, T/C for the entries that follow.
Numeric only. Scale: %

// query viability, T/C value for entry O=C(c1ccc(F)c(F)c1Nc1ccc(I)cc1F)N1CC(O)([C@@H]2CCCCN2)C1 + CNC(C)C(=O)NC1CN(S(=O)(=O)c2cccc(S(=O)(=O)N3CCC4CCC(C(=O)NC(c5ccccc5)c5ccccc5)N4C(=O)C(NC(=O)C(C)NC)C3)c2)CCC2CCC(C(=O)NC(c3ccccc3)c3ccccc3)N2C1=O
5.25

Repeat with C=CC(=O)N1CCN(c2nc(=O)n(-c3c(C)ccnc3C(C)C)c3nc(-c4c(O)cccc4F)c(F)cc23)C(C)C1 (stereo not drawn) + CNC(C)C(=O)NC1CN(S(=O)(=O)c2cccc(S(=O)(=O)N3CCC4CCC(C(=O)NC(c5ccccc5)c5ccccc5)N4C(=O)C(NC(=O)C(C)NC)C3)c2)CCC2CCC(C(=O)NC(c3ccccc3)c3ccccc3)N2C1=O
3.84

Repeat with Cn1ncnc1[C@H]1c2n[nH]c(=O)c3cc(F)cc(c23)N[C@@H]1c1ccc(F)cc1 + CNC(C)C(=O)NC1CN(S(=O)(=O)c2cccc(S(=O)(=O)N3CCC4CCC(C(=O)NC(c5ccccc5)c5ccccc5)N4C(=O)C(NC(=O)C(C)NC)C3)c2)CCC2CCC(C(=O)NC(c3ccccc3)c3ccccc3)N2C1=O
3.1

Repeat with C#Cc1c(F)ccc2cc(O)cc(-c3ncc4c(N5CC6CCC(C5)N6)nc(OCC56CCCN5CC(F)C6)nc4c3F)c12 (stereo not drawn) + CNC(C)C(=O)NC1CN(S(=O)(=O)c2cccc(S(=O)(=O)N3CCC4CCC(C(=O)NC(c5ccccc5)c5ccccc5)N4C(=O)C(NC(=O)C(C)NC)C3)c2)CCC2CCC(C(=O)NC(c3ccccc3)c3ccccc3)N2C1=O
5.72

Repeat with COc1c(OCCCN2CCOCC2)ccc2c3n(c(=NC(=O)c4cnc(N)nc4)nc12)CCN3 + CNC(C)C(=O)NC1CN(S(=O)(=O)c2cccc(S(=O)(=O)N3CCC4CCC(C(=O)NC(c5ccccc5)c5ccccc5)N4C(=O)C(NC(=O)C(C)NC)C3)c2)CCC2CCC(C(=O)NC(c3ccccc3)c3ccccc3)N2C1=O
4.38

Repeat with CCN1CCN(Cc2ccc(Nc3ncc(F)c(-c4cc(F)c5nc(C)n(C(C)C)c5c4)n3)nc2)CC1 + CNC(C)C(=O)NC1CN(S(=O)(=O)c2cccc(S(=O)(=O)N3CCC4CCC(C(=O)NC(c5ccccc5)c5ccccc5)N4C(=O)C(NC(=O)C(C)NC)C3)c2)CCC2CCC(C(=O)NC(c3ccccc3)c3ccccc3)N2C1=O
3.84

Repeat with C=C(F)C(=O)N1CCN(c2nc(OCC3CCCN3C)nc3c2CCN(c2cccc4cccc(Cl)c24)C3)CC1CC#N (stereo not drawn) + CNC(C)C(=O)NC1CN(S(=O)(=O)c2cccc(S(=O)(=O)N3CCC4CCC(C(=O)NC(c5ccccc5)c5ccccc5)N4C(=O)C(NC(=O)C(C)NC)C3)c2)CCC2CCC(C(=O)NC(c3ccccc3)c3ccccc3)N2C1=O
3.17

Repeat with NC1CCC(NC2CC2c2ccccc2)CC1 (stereo not drawn) + CNC(C)C(=O)NC1CN(S(=O)(=O)c2cccc(S(=O)(=O)N3CCC4CCC(C(=O)NC(c5ccccc5)c5ccccc5)N4C(=O)C(NC(=O)C(C)NC)C3)c2)CCC2CCC(C(=O)NC(c3ccccc3)c3ccccc3)N2C1=O
4.22
